SYSTEM TESTED: HLA-DR DRB1*0405 (human)
METHOD DESCRIPTION: competition with 125I-labelled peptide for purified HLA-DR
READOUT LABEL: IC50 (nM)
Report the figure in nM without appending any unit label.

Qu. // IC50 lookup, key: RREVHIYYLEKANKI (modifications not checked) [Flu.PA.127]
Ans. 1490

# credit: patent US20080032921A1
